Task for the reader: assign each of the following sequences its reported pKd.
molecular target: EGFRvIII (on U87-EGFRvIII cells) del30-297; assay: cell ELISA; details: apparent Kd, fixed U87-EGFRvIII cells, 3% BSA in PBST block (PBS, 0.01% Tween 20, pH 7.4), 37 C 40 min, SELEX binding buffer: PBS, 5 mM MgCl2, glucose, yeast tRNA, salmon …
Lab note: report pKd as minus log10 of the concentration in molar units, number only.

Request: Given ATCCAGAGTGACGCAGCATGAATCTTTTCTTTTGGTTTTGATATTTATAGTTGGTGAATGGACACGGTGGCTTAGT [U8] , state its recorded pKd.
Response: 8.36

Request: Given ATCCAGAGTGACGCAGCATTTTGACGCTTTATCCTTTTCTTATGGCGGGATAGTTTCGTGGACACGGTGGCTTAGT [U2] , state its recorded pKd.
Response: 8.47
